- protocol_conditions: human gut metagenome, 24 h, 2 µM; further: call rule not given here
reported_endpoint: Bacterial Biotransformation

Some entries whose results are on file:
• CC1Cc2ccccc2N1NC(=O)c1ccc(Cl)c(S(N)(=O)=O)c1 (configuration not stated) [INDAPAMIDE] = Compound NOT metabolized
• CCOC(=O)[C@H](CCc1ccccc1)N[C@@H](C)C(=O)N1Cc2ccccc2C[C@H]1C(=O)O = Compound metabolized
• CC(=O)O[C@H]1C(=O)[C@@]2(C)[C@H]([C@H](OC(=O)c3ccccc3)[C@]3(O)C[C@H](OC(=O)[C@H](O)[C@@H](NC(=O)c4ccccc4)c4ccccc4)C(C)=C1C3(C)C)[C@]1(OC(C)=O)CO[C@@H]1C[C@@H]2O [PACLITAXEL] = Compound NOT metabolized
• CC(=O)OCC(=O)[C@@]1(OC(C)=O)[C@@H](C)C[C@H]2[C@@H]3C[C@H](F)C4=CC(=O)C=C[C@]4(C)[C@@]3(F)[C@@H](O)C[C@@]21C [DIFLORASONE DIACETATE] = Compound metabolized
• O=C1N=C([O-])NC1(c1ccccc1)c1ccccc1.[Na+] [PHENYTOIN SODIUM] = Compound NOT metabolized

## Input Can you look up the measured Bacterial Biotransformation of Cc1cc(C)cc(OCC2CNC(=O)O2)c1 (configuration not stated) [METAXALONE] for me?
## Output Compound NOT metabolized

## Input Can you look up the measured Bacterial Biotransformation of CC#C[C@]1(O)CC[C@H]2[C@@H]3CCC4=CC(=O)CCC4=C3[C@@H](c3ccc(N(C)C)cc3)C[C@@]21C [MIFEPRISTONE] for me?
## Output Compound NOT metabolized

## Input Can you look up the measured Bacterial Biotransformation of OCCN(CCO)c1nc(N2CCCCC2)c2nc(N(CCO)CCO)nc(N3CCCCC3)c2n1 [DIPYRIDAMOLE] for me?
## Output Compound metabolized

## Input Can you look up the measured Bacterial Biotransformation of COc1ccc2cc([C@H](C)C(=O)O)ccc2c1 [NAPROXEN] for me?
## Output Compound metabolized

## Input Can you look up the measured Bacterial Biotransformation of C[C@@H](c1ncncc1F)[C@](O)(Cn1cncn1)c1ccc(F)cc1F [VORICONAZOLE] for me?
## Output Compound metabolized

## Input Can you look up the measured Bacterial Biotransformation of CC(=O)OCC(CCn1cnc2cnc(N)nc21)COC(C)=O [FAMCICLOVIR] for me?
## Output Compound metabolized

## Input Can you look up the measured Bacterial Biotransformation of COc1cc(C(=O)NCc2ccc(OCCN(C)C)cc2)cc(OC)c1OC [TRIMETHOBENZAMIDE] for me?
## Output Compound NOT metabolized

## Input Can you look up the measured Bacterial Biotransformation of CC(NC(C)(C)C)C(=O)c1cccc(Cl)c1 (configuration not stated) [BUPROPION] for me?
## Output Compound NOT metabolized

## Input Can you look up the measured Bacterial Biotransformation of C#C[C@]1(OC(C)=O)CC[C@H]2[C@@H]3CCC4=C/C(=N/O)CC[C@@H]4[C@H]3CC[C@@]21CC [NORGESTIMATE] for me?
## Output Compound NOT metabolized

## Input Can you look up the measured Bacterial Biotransformation of C#C[C@]1(OC(C)=O)CC[C@H]2[C@@H]3CCC4=C[C@@H](OC(C)=O)CC[C@@H]4[C@H]3CC[C@@]21C [ETHYNODIOL DIACETATE] for me?
## Output Compound metabolized

## Input Can you look up the measured Bacterial Biotransformation of Nc1nnc(-c2cccc(Cl)c2Cl)c(N)n1 [LAMOTRIGINE] for me?
## Output Compound NOT metabolized

## Input Can you look up the measured Bacterial Biotransformation of Clc1cccc(Cl)c1N=C1NCCN1 [CLONIDINE] for me?
## Output Compound NOT metabolized

## Input Can you look up the measured Bacterial Biotransformation of O=C(O)c1cc(/N=N/c2ccc(S(=O)(=O)Nc3ccccn3)cc2)ccc1O [SULFASALAZINE] for me?
## Output Compound metabolized

## Input Can you look up the measured Bacterial Biotransformation of CN1CCC[C@@H]1CCO[C@](C)(c1ccccc1)c1ccc(Cl)cc1.O=C(O)/C=C/C(=O)O [CLEMASTINE FUMARATE] for me?
## Output Compound metabolized

## Input Can you look up the measured Bacterial Biotransformation of O=P1(N(CCCl)CCCl)NCCCO1 (configuration not stated) [CYCLOPHOSPHAMIDE ANHYDROUS] for me?
## Output Compound NOT metabolized
